The origin of these recorded values is ChEMBL document CHEMBL5365521.

Test: Metabolic stability in human hepatocyte assessed as intrinsic clearance measured per 10^6 cells
Type: ADME, cell-based
Details: hepatocytes, read-out: CLH

COMPOUND_STRING: COC[C@H](C(=O)Nc1cccc2c(-c3nc(Nc4cccc(S(C)(=O)=O)c4F)ncc3F)c[nH]c12)N1CCN(C)CC1
hepatocyte CLint [µL/min/1e6 cells]: 1.3

###

Assay: Oral bioavailability in Han Wistar rat at 1 mg/kg
Assay type: ADME, organism-based
Conditions: in vivo

COMPOUND: COC[C@H](C(=O)Nc1cccc2c(-c3nc(Nc4cccc(S(C)(=O)=O)c4F)ncc3F)c[nH]c12)N1CCN(C)CC1 [LONDAMOCITINIB]
bioavailability: 44%
